The measurements presented in this section are drawn from ChEMBL document CHEMBL5291721.

molecular target: UniProtKB P32238
Sequence (P32238 whole entry): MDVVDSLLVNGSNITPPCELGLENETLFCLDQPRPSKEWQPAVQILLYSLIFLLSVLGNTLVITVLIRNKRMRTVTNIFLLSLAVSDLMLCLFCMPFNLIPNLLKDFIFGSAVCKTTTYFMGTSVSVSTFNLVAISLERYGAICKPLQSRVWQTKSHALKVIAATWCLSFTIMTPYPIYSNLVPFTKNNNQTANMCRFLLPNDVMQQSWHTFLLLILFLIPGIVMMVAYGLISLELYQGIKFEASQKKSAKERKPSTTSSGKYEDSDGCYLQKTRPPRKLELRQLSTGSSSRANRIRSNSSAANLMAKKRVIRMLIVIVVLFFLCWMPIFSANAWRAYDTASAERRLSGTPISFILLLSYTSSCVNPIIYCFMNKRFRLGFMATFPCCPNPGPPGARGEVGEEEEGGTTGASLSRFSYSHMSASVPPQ
EXPERIMENTAL_ENDPOINT: AC50

>>> assay_value("CN(C)/N=N/c1[nH]cnc1C(N)=O")
"> 10 µM"
>>> assay_value("COc1ccc2c3c1O[C@H]1[C@@H](O)C=C[C@H]4[C@@H](C2)N(C)CC[C@@]341")
"> 30 µM"
>>> assay_value("COc1cc2nc(N3CCN(C(=O)c4ccco4)CC3)nc(N)c2cc1OC")
"> 30 µM"
>>> assay_value("CNC(=O)c1ccccc1Sc1ccc2c(/C=C/c3ccccn3)n[nH]c2c1")
"> 30 µM"
>>> assay_value("O=C1Nc2ccc(Cl)cc2[C@@](C#CC2CC2)(C(F)(F)F)O1")
"> 30 µM"
>>> assay_value("C[C@]12CC[C@H]3[C@@H](CCC4=CC(=O)CC[C@@]43C)[C@@H]1CC[C@@H]2O")
"> 10 µM"
>>> assay_value("CCCSc1ccc2nc(NC(=O)OC)[nH]c2c1")
"> 10 µM"
>>> assay_value("CC[C@H]1OC(=O)[C@H](C)[C@@H](O[C@H]2C[C@@](C)(OC)[C@@H](O)[C@H](C)O2)[C@H](C)[C@@H](O[C@@H]2O[C@H](C)C[C@H](N(C)C)[C@H]2O)[C@](C)(O)C[C@@H](C)CN(C)[C@H](C)[C@@H](O)[C@]1(C)O")
"> 30 µM"
>>> assay_value("CC(CC(c1ccccc1)c1ccccc1)NC(C)(C)C (stereo not drawn)")
"> 30 µM"
>>> assay_value("NCC(=O)CCC(=O)O")
"> 30 µM"
>>> assay_value("CCC(C)n1ncn(-c2ccc(N3CCN(c4ccc(OCC5COC(Cn6cncn6)(c6ccc(Cl)cc6Cl)O5)cc4)CC3)cc2)c1=O (stereo not drawn)")
"> 30 µM"
>>> assay_value("Cn1c(=O)c2c(ncn2CC2OCCO2)n(C)c1=O")
"> 30 µM"
>>> assay_value("Cc1c(C(=O)NN2CCCCC2)nn(-c2ccc(Cl)cc2Cl)c1-c1ccc(Cl)cc1")
"17 µM"
>>> assay_value("CC(C)C(=O)c1c(C(C)C)nn2ccccc12")
"> 30 µM"
>>> assay_value("CC1(C)O[C@@H]2C[C@H]3[C@@H]4CCC5=CC(=O)C=C[C@]5(C)[C@H]4[C@@H](O)C[C@]3(C)[C@]2(C(=O)CO)O1 [DESONIDE]")
"> 10 µM"
>>> assay_value("CCCCCNC(=N)N/N=C/c1c[nH]c2ccc(OC)cc12")
"> 30 µM"
>>> assay_value("CC(C[N+](C)(C)C)OC(N)=O (stereo not drawn)")
"> 10 µM"
>>> assay_value("C/C(O)=C(\\C#N)C(=O)Nc1ccc(C(F)(F)F)cc1 [TERIFLUNOMIDE]")
"> 30 µM"
